This listing pairs binders with measured neutralization IC50.
- EXPERIMENTAL_SYSTEM: HIV-1 Env of CAAN.A2 (HIV-1)
- PROCEDURE_TEXT: cell-based or functional assay

[
  {
    "BINDER": "CAP256-VRC26.10 (antibody, V domains shown) VH: QAILVESGGGVVQPGRSLRLSCAASQFTFSGHGLHWVRQAPGKGLEWVASISFAGTKMDYADSVKGRFAISRDNSKNTLYLQMNSLRVEDTALYYCAKDMREYECEYWTSDYYDFGRPQPCIDRRGVVGIFDMWGQGTMVTVST VL: QSVLTQPPSVSAAPGQKVTISCSGSSSNIGDNYVSWYQHLPGTAPKLLIYENTRRPSGIPDRFSGSKSGTSATLAITGLQTGDEADYYCGTWDVRPNRGAVFGTGTKVTVLG",
    "neutralization IC50": "> 50 µg/mL"
  },
  {
    "BINDER": "CAP256-VRC26.03 (antibody, V domains shown) VH: EVQLVESGGGVVQPGKSLRLSCAASRFSFNRYGMHWVRQAPGKGLEWVAAISYDGTDKYHADKVWGRFTISRDNSKNTLYLQMNSLRAEDTALYYCAKDLREDECEEWWSDYYDFGKQLPCRKSRGVAGIFDGWGQGTMVTVSS VL: QSVLTQPPSVSAAPGQKVTISCSGSSSNIGNNFVSWYQQRPGTAPKILIYENNKRPSETPDRFSGSKSGTSATLAITGLQTADEAEYYCATWSASLSSARVFGTGTRITVLG",
    "neutralization IC50": "> 50 µg/mL"
  },
  {
    "BINDER": "CAP256-VRC26.01 (antibody, V domains shown) VH: EVQVVESGGGVVQPGRSLRLSCTASGFTFSNFAMGWVRQAPGKGLEWVAFISSDGSNKNYGDSVKGRFTISRDNSKNTVFLQMNSLRVEDTALYYCAKDVGDYKSDEWGTEYYDISISYPIQDPRAMVGAFDLWGQGTMVTVSP VL: QSVLTQPPSVSAAPGQKVTISCSGSSSTIGNNYVSWYRLLPGTAPKLLIYKNDNRPSGIPDRFSGSKSGTSATLGISGLQTGDEADYYCGTWDTSLSGGGVFGTGTKVTVLG",
    "neutralization IC50": "> 50 µg/mL"
  }
]

Data credit: patent US20200199204A1
